For each record, write down the corresponding Minimal Inhibitory Concentrations.
system: Staphylococcus aureus VISA (code 3798); settings: S. aureus VISA code 3798; 0.02% albumine bovine serum; read after 24 h
Entry rule: numbers only, all in µg/mL.

Notebook entry, Staphylococcus aureus VISA (code 3798) assay: Minimal Inhibitory Concentrations of C=C1NC(=O)[C@H](C(C)C)NC(=O)[C@H](NC(=O)/C(=C/C)NC(=O)[C@@H](N)[C@@H](C)CC)CSC[C@@H](C(=O)N[C@H]2C(=O)N3CCC[C@H]3C(=O)NCC(=O)N[C@H](C(=O)N[C@H](C(=O)N[C@@H]3CSC[C@@H]4NC(=O)CNC(=O)[C@@H](CSC[C@@H]5NC(=O)[C@H](Cc6c[nH]cn6)NC(=O)[C@@H](CSC[C@@H](C(=O)NCCOC)NC5=O)NC4=O)NC(=O)CNC(=O)CNC(=O)CNC(=O)[C@H](CCC(=O)NCCOC)NC3=O)[C@@H](C)O)CS[C@H]2C)NC(=O)[C@H](Cc2c[nH]c3ccccc23)NC1=O = ?
4

Form field - read-out: Minimal Inhibitory Concentrations; system: Staphylococcus aureus VISA (code 3798); submitted item: C=C1NC(=O)[C@H](C(C)C)NC(=O)[C@H](NC(=O)/C(=C/C)NC(=O)[C@@H](N)[C@@H](C)CC)CSC[C@@H](C(=O)N[C@H]2C(=O)N3CCC[C@H]3C(=O)NCC(=O)N[C@H](C(=O)N[C@H](C(=O)N[C@@H]3CSC[C@@H]4NC(=O)CNC(=O)[C@@H](CSC[C@@H]5NC(=O)[C@H](Cc6c[nH]cn6)NC(=O)[C@@H](CSC[C@@H](C(=O)NCCCCN(C)C)NC5=O)NC4=O)NC(=O)CNC(=O)CNC(=O)CNC(=O)[C@H](CCC(=O)NCCCCN(C)C)NC3=O)[C@@H](C)O)CS[C@H]2C)NC(=O)[C@H](Cc2c[nH]c3ccccc23)NC1=O
1

The origin of these recorded values is patent US20120053115A1.
